In this section we review reported HEK293 huKLB/R1c reporter assay EC50, Experiment - A values for a set of binders.
# Study System: human beta klotho / human FGFR1c receptor complex on cells (human, UniProt Q86Z14 1-1044; P11362 22-822)
# Sequence (Q86Z14 whole entry, chain 1 of 2): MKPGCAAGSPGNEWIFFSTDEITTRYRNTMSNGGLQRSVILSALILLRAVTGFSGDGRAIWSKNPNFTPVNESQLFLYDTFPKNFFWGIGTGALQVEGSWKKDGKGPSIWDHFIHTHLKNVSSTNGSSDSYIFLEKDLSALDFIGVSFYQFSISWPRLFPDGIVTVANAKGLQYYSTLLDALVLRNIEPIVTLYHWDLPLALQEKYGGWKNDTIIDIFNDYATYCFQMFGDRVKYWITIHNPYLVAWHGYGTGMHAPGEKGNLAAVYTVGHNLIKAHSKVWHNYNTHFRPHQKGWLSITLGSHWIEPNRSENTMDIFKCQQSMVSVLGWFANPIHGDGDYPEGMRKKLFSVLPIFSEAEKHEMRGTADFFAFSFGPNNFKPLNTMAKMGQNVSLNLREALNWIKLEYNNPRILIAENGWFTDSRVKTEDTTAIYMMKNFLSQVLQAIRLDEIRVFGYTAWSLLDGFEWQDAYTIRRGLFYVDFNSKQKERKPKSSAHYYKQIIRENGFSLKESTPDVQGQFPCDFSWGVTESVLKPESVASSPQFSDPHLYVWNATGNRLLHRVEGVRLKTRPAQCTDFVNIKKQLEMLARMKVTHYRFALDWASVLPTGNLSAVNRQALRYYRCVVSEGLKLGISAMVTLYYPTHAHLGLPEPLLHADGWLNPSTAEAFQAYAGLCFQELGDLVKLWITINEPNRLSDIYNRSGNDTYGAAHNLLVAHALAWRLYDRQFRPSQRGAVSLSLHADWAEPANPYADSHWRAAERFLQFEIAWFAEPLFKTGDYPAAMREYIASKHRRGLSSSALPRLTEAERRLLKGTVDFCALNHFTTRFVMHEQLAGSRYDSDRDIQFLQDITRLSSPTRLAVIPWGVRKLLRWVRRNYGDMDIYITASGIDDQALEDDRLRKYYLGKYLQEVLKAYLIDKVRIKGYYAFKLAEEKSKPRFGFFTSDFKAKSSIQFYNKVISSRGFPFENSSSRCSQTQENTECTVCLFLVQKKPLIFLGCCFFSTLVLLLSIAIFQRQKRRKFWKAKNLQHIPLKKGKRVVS
# Sequence (P11362 22-822 limits assumed, chain 2 of 2): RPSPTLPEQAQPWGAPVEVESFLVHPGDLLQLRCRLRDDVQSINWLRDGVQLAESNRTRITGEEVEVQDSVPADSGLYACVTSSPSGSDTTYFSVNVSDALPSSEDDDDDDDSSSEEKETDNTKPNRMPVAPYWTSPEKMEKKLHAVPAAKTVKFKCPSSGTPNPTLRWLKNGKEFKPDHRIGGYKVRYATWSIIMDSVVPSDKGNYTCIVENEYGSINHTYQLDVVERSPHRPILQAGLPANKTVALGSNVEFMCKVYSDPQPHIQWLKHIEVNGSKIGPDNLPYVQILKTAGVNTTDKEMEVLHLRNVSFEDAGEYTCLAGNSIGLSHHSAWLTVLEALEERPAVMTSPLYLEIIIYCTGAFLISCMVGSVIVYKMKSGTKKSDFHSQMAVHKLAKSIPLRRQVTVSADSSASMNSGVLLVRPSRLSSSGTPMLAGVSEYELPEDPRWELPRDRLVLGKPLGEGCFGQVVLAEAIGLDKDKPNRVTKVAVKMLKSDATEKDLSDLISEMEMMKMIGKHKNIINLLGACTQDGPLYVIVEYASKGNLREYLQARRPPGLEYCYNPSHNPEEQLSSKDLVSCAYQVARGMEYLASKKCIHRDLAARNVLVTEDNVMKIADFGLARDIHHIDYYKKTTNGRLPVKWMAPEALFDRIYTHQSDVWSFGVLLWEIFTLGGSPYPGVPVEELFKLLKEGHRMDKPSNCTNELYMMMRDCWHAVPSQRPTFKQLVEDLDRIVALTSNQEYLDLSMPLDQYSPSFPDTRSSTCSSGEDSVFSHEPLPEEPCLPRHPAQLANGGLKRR
# Test Description: cell-based or functional assay
Value Type: HEK293 huKLB/R1c reporter assay EC50, Experiment - A (nM)

1. antibody 1D19 (antibody, V domains shown, Murine monoclonal antibody) VH: QVQPQESGPELVKPGALVKISCKASGYTFTRYDINWMKQRPGQGLEWIGWIYPGDSSTKFNENFKDKATLTADKSSSTAYMQLSSLTSENSTVYFCARSDYYGSRSFTYWGQGTLVTVSA VL: DIVLTQSPASLAVSLGQRATISCRASKSVSTSGYSYMHWYQQKPGQPPKLLIYLASNLESGVPARFSGSGSGTDFTLNIHPVEEEDAATYYCQHSRELPYTFGGGTKLEIK	0.62
2. antibody 1G19 (antibody, V domains shown, Murine monoclonal antibody) VH: QVQLQESGPGLVKPSQSLSLTCSVTGYSITSGYYWNWIRQFPGNKLEWMGYINYGGSNNYNPSLKNRISITRDTSKNQFFLKLTSVTTEDTATYYCARRGAYYSNYDSFDVWGTGTTVTVSS VL: DIKMTQSPSSMYASLGERVTITCKASQDINSYLSWFQQKPGKSPKTLIYRANRLVDGVPSRFSGSGSGQDYSLTISSLEYEEMGIYYCLQYDEFPYTFGGGTKLEIK	0.231
3. antibody 5H23 (antibody, V domains shown, Murine monoclonal antibody from hybridoma; also called 5H23-Alexa647 (labelled form)) VH: QVQLQQSGPELVKPGALVKISCKASGYTFTSYDINWVKQRPGQGLEWIGWIYPGDGSTKYNEKFKGKATLTADKSSRTAYMQLSSLTSENSAVYFCARSDYYGSRSFAYWGQGTLVTVSA VL: DIVLTQSPASLAVSLGQRATISCRASKSVSTSGYVYMHWNQQKPGQPPKLLIYLASYLESGVPARFSGSGSGTDFTLNIHPVEEEDAAIYYCQHSRDLTFPFGGGTKLEIK	0.102
4. antibody 3N20 (antibody, V domains shown, Murine monoclonal antibody) VH: QVQLQESGAELARPGASVKLSCKVSGYIFTNYGISWVKQRTGQGLEWIGEIYPRSGNTYYNEKFKGKATLTADMSSSTAYMDLRSLTSEDSAVYFCARHWDGVLDYFDYWGQGTSLTVSS VL: DIVMTQSPSSLSVSAGEKVTMSCKSSQSLLNSGNQKNYLAWYQQKPGQPPKLLIYGASTRESGVPDRFTGSGSGTDFTLTISSVQAEDLAVYYCLNDHSYPFTFGAGTKLELK	0.527
